Measured values drawn from PubChem BioAssay AID280 for this set.

Tested on: nude mice, LOX melanoma ip, survival T/C
Test: NCI In Vivo Anticancer Drug Screen. Data for tumor model Human Amelanotic Melanoma (LOX) (intraperitoneal) in NU/NU BALB/C (nude) mice
Conditions: endpoint: median survival time; dose: 150.0 mg/kg/injection; schedule: Q04DX003 (ip); vehicle: saline with Tween-80; higher = longer survival
Inconclusive results and toxic doses are left out.
Property Name: T/C

(Q) Output reported T/C of the compound O=C(CCCCCCC(=O)ON1C(=O)CCC1=O)ON1C(=O)CCC1=O on nude mice, LOX melanoma ip, survival T/C.
(A) 101 % of control

(Q) System nude mice, LOX melanoma ip, survival T/C. Read-out T/C. Item NC(=O)c1cc(Cl)nc2nc(Cl)nc(N)c12 . Report value.
(A) 92 % of control

(Q) Give nude mice, LOX melanoma ip, survival T/C T/C for the following compound: c1ccc([Te][Te]c2ccccc2)cc1
(A) 112 % of control

(Q) Given S=C(NCNC(=S)c1ccncc1)c1ccncc1 , report its T/C on nude mice, LOX melanoma ip, survival T/C.
(A) 103 % of control

(Q) Output reported T/C of the compound CC1C(c2ccccc2)OC(N2CCOCC2)C(C)(C)CN1C (stereo not given) on nude mice, LOX melanoma ip, survival T/C.
(A) 93 % of control

====

Test system: nude mice, LOX melanoma ip, survival T/C
Test: NCI In Vivo Anticancer Drug Screen. Data for tumor model Human Amelanotic Melanoma (LOX) (intraperitoneal) in NU/NU BALB/C (nude) mice
Settings: endpoint: median survival time; dose: 37.5 mg/kg/injection; schedule: Q04DX003 (ip); vehicle: saline with Tween-80
Toxic doses and inconclusive results are not listed. The calls were made as follows: active = survival T/C of 150% or more; inactive = T/C below 125% in these data.
Your reply should match one of these outcome classes. label 1 for active, label 0 for inactive

(Q) Hey, what did the test say about CCCCCCNc1nc(NCCCCCC)c2[nH]c(NCCCCCC)nc2n1 ?
(A) label 0

(Q) Please share the test call associated with O=C1CN(CCN2CC(=O)N(CN3CCOCC3)C(=O)C2)CC(=O)N1CN1CCOCC1 .
(A) label 0

(Q) Answer briefly: the call reported for COc1cc(C(=O)N/N=C/c2cccc([N+](=O)[O-])c2)cc(OC)c1OC in this assay.
(A) label 0

(Q) Status in this test for CCOC(=O)C1=C(C)O/C(=C/c2cccc(Cl)c2)C1=O ?
(A) label 1

(Q) Would you mind telling me which call this test gave c1ccc(OCC2CO2)c(OCC2CO2)c1 (stereo not given) ?
(A) label 0
